Tested on: K562
protocol-notes: NCI tumour cell line growth inhibition, 48 h
The source made the active and inactive calls. Rule as the data show it: active = GI50 up to about 1.1 µM and inactive = higher.
Answer with one of the outcomes label 1 (active), label 0 (inactive)

Known results for compounds:
Cc1ccc(S(=O)(=O)NC(=O)NCCC(=O)O)cc1 | label 0
CCc1n[nH]c(=O)n1/N=C/c1ccccc1O | label 0
CCN(CCCl)CCCCCNc1c2ccccc2nc2ccc(OC)cc12 | label 1
COc1cc(OC)c2c(=O)c(OC)c(-c3ccc4c(c3)OCO4)oc2c1 | label 0
Cc1ncc([N+](=O)[O-])n1CCNS(=O)(=O)CCCn1ccnc1[N+](=O)[O-] | label 0
COC(=O)[C@H](Cc1ccccc1)NC(=O)c1ccc(CNC(=O)/C=C/c2cccc(Oc3ccccc3)c2)cc1 | label 0

Per the records of this test, what outcome belongs to Cc1ccc(S(=O)(=O)CC2(Br)CCc3ccccc3C2=O)cc1 (stereo not given) ?
label 0

Which result was noted for this compound in the test: O=C(O)CC(NC(=O)Nc1ccc([N+](=O)[O-])cc1)C(=O)Nc1ccc([N+](=O)[O-])cc1 (stereo not given)
label 0

# lookup: test call for O=C1Nc2ccc(S(=O)(=O)O)cc2/C1=C1/Nc2ccc(Br)cc2C1=O
label 0

Could you kindly confirm the outcome this assay logged for CC1=C/C(=N/N2C(=O)/C(=C/c3ccc(Cl)cc3)N=C2c2ccccc2)CC(C)(C)C1 ?
label 0

What was the test verdict on CN(C)c1ccc(/C=C(\NC(=O)c2ccccc2)c2nc3cncnc3[nH]2)cc1 ?
label 0

Please indicate how the test categorized O=C(N/C(=C\c1ccc(/C=C(\NC(=O)c2ccccc2)c2nc3cc([N+](=O)[O-])ccc3[nH]2)cc1)c1nc2cc([N+](=O)[O-])ccc2[nH]1)c1ccccc1 .
label 0

State the result this test recorded for COC(=O)CCc1cc(OC)c2c(c1)[C@H](C(=O)OC)[C@@H](c1ccc(O)c(OC)c1)O2 .
label 0

// param item: O=C1NC(c2ccccc2)N=C2Oc3ccccc3C=C12 (stereo not given) ; yields the recorded call
label 0

// return assay outcome for CC(=O)Nc1oc(C)c(C)c1S(=O)(=O)c1ccc(Cl)cc1
label 0

Please state the recorded outcome for this compound: OCCN(CCO)c1ncnc2c1sc(=S)n2-c1ccccc1
label 0

Write down the call the test reported for this compound. Item: CC1=NN(C(=O)c2ccncc2)C(=O)C1/N=N/c1ccc(F)cc1 (stereo not given)
label 0

Tell me the recorded outcome of this test for O=C(O)C(F)(OC(F)(F)C(F)(OC(F)(F)C(F)(F)C(F)(F)F)C(F)(F)F)C(F)(F)F (stereo not given) .
label 0

# lookup: test call for CC1=NN(c2ccc(S(=O)(=O)O)cc2)C2(C1)SCC(=O)N2c1nc2ccccc2s1 (stereo not given)
label 0

Record lookup: outcome of this test for COC(=O)NC(Nc1ccccn1)(C(F)(F)F)C(F)(F)F ?
label 0

====

Test system: PC-3
protocol-notes: NCI tumour cell line growth inhibition, 48 h
Calls of active or inactive are those of the source. No stated cut-off is given here; in the data, active = GI50 up to about 1.1 µM and inactive = higher.
In this section we review reported GI50 values for a set of compounds.

# annotated cases, reported GI50 shown
O=[N+]([O-])c1cc(-c2ccc([As](=O)(O)O)cc2)ccc1[As](=O)(O)O | > 100 µM (inactive)
C1CSC(Sc2nc(SC3=NCCS3)nc(SC3=NCCS3)n2)=N1 | > 100 µM (inactive)
C[C@H](CCCOS(C)(=O)=O)[C@H]1CC[C@H]2[C@@H]3CC[C@@H]4C[C@H](OS(C)(=O)=O)CC[C@]4(C)[C@H]3CC[C@]12C | 20.6 µM (inactive)
NCC1CCN(c2nc3ccccc3c3c2CCCC3)CC1 | 8.93 µM (inactive)
Cc1cc(S(=O)(=O)Nc2nc(Nc3ccc(Cl)cc3)n[nH]2)c(S)cc1Cl | > 100 µM (inactive)
C[C@]12CC[C@H]3[C@@H](CC=C4C[C@@H](O)CC[C@@]43C)[C@@H]1C/C(=C\c1cccnc1)[C@@H]2O | 30.7 µM (inactive)

Dear colleague, I am looking for the recorded GI50 of the following compound: CC1=NNC(=S)NCCCN2CCN(CCCNC(=S)NN=C(C)C=NNC(=S)NCCCN3CCN(CCCNC(=S)NN=C1)CC3)CC2
> 100 µM (inactive)

Name the reported GI50 value associated with the compound COC(=O)CC[N+]1=CCC(c2ccccc2)(c2ccccc2)O1
> 100 µM (inactive)
